# System: Plasmodium falciparum
# protocol.summary: Antimalarial activity against Plasmodium falciparum infected in erythrocytes in presence of 1 uM pantothenic acid and TBA salt form by SYBR safe-based fluorescence assay
# Type: functional, organism-based
observable: pIC50
For clarity, pIC50 is expressed as the negative log10 of concentration in mol/L.

Ask: Consider the compound shown here: CC(C)(CO)[C@@H](O)C(=O)N/C=C/C(=O)O What is its recorded pIC50?
Reply: 4.60
